Source: patent US20230391786A1

Could you please report measured IC50 for the items listed next?
- TEST_TARGET: recombinant human cGAS (Homo sapiens (Human), UniProt Q8N884)
- Sequence (Q8N884 whole entry): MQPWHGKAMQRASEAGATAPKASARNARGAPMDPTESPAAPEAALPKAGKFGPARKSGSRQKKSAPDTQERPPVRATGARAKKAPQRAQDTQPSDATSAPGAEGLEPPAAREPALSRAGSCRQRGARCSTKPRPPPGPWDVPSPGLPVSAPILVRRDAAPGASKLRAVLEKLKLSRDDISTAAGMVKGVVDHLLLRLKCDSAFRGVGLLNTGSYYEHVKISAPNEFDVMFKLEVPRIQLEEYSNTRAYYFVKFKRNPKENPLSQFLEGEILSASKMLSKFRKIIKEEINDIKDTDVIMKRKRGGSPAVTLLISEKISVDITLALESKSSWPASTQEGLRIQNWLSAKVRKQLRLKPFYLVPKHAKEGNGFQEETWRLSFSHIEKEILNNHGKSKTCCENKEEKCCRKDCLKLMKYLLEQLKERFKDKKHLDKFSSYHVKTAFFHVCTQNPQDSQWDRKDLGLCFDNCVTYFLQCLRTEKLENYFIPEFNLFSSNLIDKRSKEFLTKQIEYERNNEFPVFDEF
- PROCEDURE_DETAILS: In vitro inhibition assay of cGAS activity (cGAMP production, RapidFire mass spectrometry)
- Assay type: biochemical
- MEASUREMENT_SETUP: 10 nM recombinant human cGAS, 60 nM 75-bp dsDNA, ATP, GTP, room temperature 3 hours, read-out: IC50 (μM), In vitro inhibition assay for Compounds 95-348
Write the number in µM without appending the unit.

Query: Fill in the blank: the reported IC50 of NCCOCCOCCOCCC(=O)NC1CCc2c(-c3cn[nH]c3)c3ccc(Cl)c(Cl)c3n2C1 (stereo not drawn) is ____.
Result: 0.0882

Query: Fill in the blank: the reported IC50 of OCCCn1cc(-n2cc(-c3cn[nH]c3)c3ccc(Cl)c(Cl)c32)nn1 is ____.
Result: 0.077

Query: Fill in the blank: the reported IC50 of OCCCOc1cc(Cl)c(Cl)c2[nH]c(CO)c(-c3cn[nH]c3)c12 is ____.
Result: 0.00474

Query: Fill in the blank: the reported IC50 of CCC(=O)NC(C)C(=O)N1CCn2c(c(-c3cn[nH]c3)c3ccc(Cl)c(Cl)c32)C1 (stereo not drawn) is ____.
Result: 0.0682

Query: Fill in the blank: the reported IC50 of O=C(CO)NCc1[nH]c2c(Cl)c(Cl)cc(NC(=O)CO)c2c1-c1cn[nH]c1 is ____.
Result: 0.0238

Query: Fill in the blank: the reported IC50 of CCOc1cc(Cl)c(Cl)c2c1c(-c1cn[nH]c1)c1n2CC[C@@H]1NC(=O)CO is ____.
Result: 0.00614

Query: Fill in the blank: the reported IC50 of O=C1NC(C(=O)N2CCn3c(c(-c4cn[nH]c4)c4ccc(Cl)c(Cl)c43)C2)CCO1 (stereo not drawn) is ____.
Result: 0.0491

Query: Fill in the blank: the reported IC50 of N#CCNc1cc(Cl)c(Cl)c2c1c(-c1cn[nH]c1)c1n2CCN(CCO)C1=O is ____.
Result: 0.0419

Query: Fill in the blank: the reported IC50 of O=C(Nc1cc(Cl)c(Cl)c2c1c(-c1cn[nH]c1)c1n2CCN(C(=O)CN2CCOC2=O)C1)C(F)F is ____.
Result: 0.023

Query: Fill in the blank: the reported IC50 of N#CCOc1cc(Cl)c(Cl)c2[nH]nc(-c3cn[nH]c3)c12 is ____.
Result: 0.0306

Query: Fill in the blank: the reported IC50 of OCC(O)Cn1cc(-n2cc(-c3cn[nH]c3)c3ccc(Cl)c(Cl)c32)nn1 (stereo not drawn) is ____.
Result: 0.0481

Query: Fill in the blank: the reported IC50 of N#CCOc1cc(Cl)c(Cl)c2c1c(-c1cn[nH]c1)c1n2CCN(C(=O)c2nccnc2C(=O)N2CCOCC2)C1 is ____.
Result: 0.061

###

Could you please report measured IC50 for the items listed next?
- TEST_TARGET: recombinant human cGAS (Homo sapiens (Human))
- PROCEDURE_DETAILS: In vitro inhibition assay of cGAS activity (cGAMP production, RapidFire mass spectrometry)
- Type: biochemical
- MEASUREMENT_SETUP: 10 nM recombinant human cGAS, 60 nM 75-bp dsDNA, ATP, GTP, room temperature 3 hours, read-out: IC50 (μM), In vitro inhibition assay for Compounds 95-348
Write the number in µM without appending the unit.

Query: Fill in the blank: the reported IC50 of O=C(CO)Nc1nnc(-c2[nH]c3c(Cl)c(Cl)ccc3c2-c2cn[nH]c2)o1 is ____.
Result: 0.0235

Query: Fill in the blank: the reported IC50 of CC(=O)N1CCOCC1C(=O)N1CCn2c(c(-c3cn[nH]c3)c3ccc(Cl)c(Cl)c32)C1 (stereo not shown) is ____.
Result: 0.0698

Query: Fill in the blank: the reported IC50 of O=C(CCn1ccnc1)N1CCn2c(c(-c3cn[nH]c3)c3ccc(Cl)c(Cl)c32)C1 is ____.
Result: 0.0636

Query: Fill in the blank: the reported IC50 of CC(=O)Nc1cc(Cl)cc2c1c(-c1cn[nH]c1)cn2-c1cn(CCO)nn1 is ____.
Result: 0.0777

Query: Fill in the blank: the reported IC50 of OCCCNc1cc(Cl)c(Cl)c2c1c(-c1cn[nH]c1)cn2-c1cn(CCO)nn1 is ____.
Result: 0.011

Query: Fill in the blank: the reported IC50 of CN1CCO[C@@H](C(=O)N2CCn3c(c(-c4cn[nH]c4)c4c(OCC#N)cc(Cl)c(Cl)c43)C2)C1 is ____.
Result: 0.0089

Query: Fill in the blank: the reported IC50 of CC(=O)N[C@H]1Cc2c(-c3cn[nH]c3)c3c(NC(=O)C(F)F)cc(Cl)c(Cl)c3n2C1 is ____.
Result: 0.0099

Query: Fill in the blank: the reported IC50 of CN(C)C(=O)COCC(=O)N1CCn2c(c(-c3cn[nH]c3)c3ccc(Cl)c(Cl)c32)C1 is ____.
Result: 0.0291

Query: Fill in the blank: the reported IC50 of COCCN1CC(C(=O)N2CCn3c(c(-c4cn[nH]c4)c4ccc(Cl)c(Cl)c43)C2)CC1=O (stereo not shown) is ____.
Result: 0.0468

Query: Fill in the blank: the reported IC50 of OCC(O)CNc1cc(Cl)c(Cl)c2[nH]cc(-c3cn[nH]c3)c12 (stereo not shown) [Example 175] is ____.
Result: 0.0585

Query: Fill in the blank: the reported IC50 of OCC(CO)CNc1cc(Cl)c(Cl)c2[nH]cc(-c3cn[nH]c3)c12 is ____.
Result: 0.0379

Query: Fill in the blank: the reported IC50 of CN1C(=O)CCCC1C(=O)N1CCn2c(c(-c3cn[nH]c3)c3ccc(Cl)c(Cl)c32)C1 (stereo not shown) is ____.
Result: 0.083

Query: Fill in the blank: the reported IC50 of O=C(O)[C@@H]1CCCN1C(=O)c1[nH]c2c(Cl)c(Cl)ccc2c1-c1cn[nH]c1 is ____.
Result: 0.0757
